Measured on: Chaperone protein DnaK (Escherichia coli (strain K12))
Experiment: binders of DnaK substrate-binding domain, biophysical, NMR, chaperone (AID 1033)
Measurement setup: Purified DnaK SBD, NMR ligand binding
Active and inactive are the calls of the source. No rule for the calls is given here.
Experimental endpoint: Kd

Recorded results for 3 compounds are shown here.
1) CCCNC(=O)CSc1ncccc1C(=O)O; > 4 mM (inactive)
2) Cc1nn2c(-c3ccncc3)nnc2c2ccccc12; > 4 mM (inactive)
3) COC(=O)C1Cc2ccccc2N1 (configuration not stated); > 4 mM (inactive)

## Task Notebook: pull reported Kd for Chaperone protein DnaK (Escherichia coli (strain K12)), entry CC(C)=CC1C(CO)C1(C)C (configuration not stated)
## Result > 4 mM (inactive)

## Task What reported Kd corresponds to CC(C)NC(=O)Cc1c(O)c2ccccc2[nH]c1=O on Chaperone protein DnaK (Escherichia coli (strain K12))?
## Result > 4 mM (inactive)

## Task Lab request: please report Kd under test system Chaperone protein DnaK (Escherichia coli (strain K12)) for COc1ccc(-c2c(O)c3c(OC)c4c(cc3oc2=O)OC(C)(C)CC4)cc1
## Result > 4 mM (inactive)

## Task Report Kd for O=c1c2ccccc2ncn1C1CCCCC1 tested on Chaperone protein DnaK (Escherichia coli (strain K12)).
## Result > 4 mM (inactive)
